The reported numbers originate from the supplement of paper PMC9170038.

# Test system: K4 kissing-loop RNA reporter;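 further: bound reporter read as fluorescence of individual clusters on recovered sequencing chips by microscopy, with normalized cluster intensities fitted with a binding model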
# Test details: apparent KD of K4 kissing-loop reporter; higher = weaker reporter binding
# Setup conditions: Eterna round: R107; input ligand: theophylline 20 uM
Rule: apparent KD of K4 kissing-loop reporter under 0.4 µM gives no, otherwise yes.

| Construct sequence | Answer label |
| --- | --- |
| AUCAUUGAGUGAUGUUCAAUGGGUUUUCCCAAGGAUAUUCGGAGCUGAAGAAGGUGGCCCUCGAUAUCAGUAUCAACCUGAAAGC [theeternabot_exclusion_KL_FMN_A_11] | no |
| UUAGUCUAGAGAAGGAGCGAGUGAUGUUCGCAUGCUAUGAUGAAUUCAUCAUAGUUUAAUCCUCAGGUAGGUCGCUCUAGACAUU [AK7 Exc Arginine B] | no |
| AUGCGCGUGCGAUGAAAAUCGCACGCGCAUCGAGGACCGGUACGGCCGCCACUCGCUCGCGCCGAGUGAUGUUCGGCCGGCGAAC [#2 Same State - Tryptophan A Attempt #4 (HarryS)] | no |
| GAGGUGGAGUGAUGUUCCACACUCGCUAGUAAGGAUAUGGCUGCUUCCAGAAGGUACCUAGAUUCAGUGUGCAUCAGUAACGUGC [theeternabot_exclusion_KL_FMN_A_4] | no |
| AUUCAGAUCUGAAGGAGCGCCUUGACAAAUUACUGCUUUGAGCAGUGAUGUUGCUCAAUUAGGCAGGUAGGUCGCAGAUCUAACC [Arg B Ex t7] | no |
| AAUGGGUGAUAAGGAUAUCCACCUCACAAACCAAGAGUGAUGUUCGUUGGUCCAUGGACAAUAUGUGGAGAAGGUAUAGUGAUUA [theeternabot_exclusion_KL_FMN_B_48] | yes |
| AAGCAGUCACUCGUAUCCAUCGAAGAUGGUCGAGGACCGGUACGGCCGCCACUCGGAGUGAUGUUCCGAAGACUGCAAAAUAAAA [#SwitchBubble 13] | no |
| GUCCCGAGUGAUGUUCGGGUCGUUUGGGAAGGAGCGCCCGGAAGGGCAGGUAGGUCGCCCGGACCCUGCAGGUAACUGUUGGGCC [#2 Same State - Arginine A Attempt #19 (HarryS)] | no |
| AAUUUACAAUAAUCAUUUAAAGGAUCAGAAGGAGCGUGAAAUAACACAGGUAGGUCGCUGAGCGAGUGAUGUUCGCUAUAUACAA [JR_ExcArginiA_Sub001] | no |
| AGCAGUGAUGUUGCAUUUAUAAUGACCGAUACCAGUAUCGAUAGAUACCCUUGGCAGCGGAUUUCCGCAACGACUAGGAAACUAG [Ex Theophylline A K4 14] | yes |
| ACUUUGGGCCCAGUGAUGUUGGGUCCAGAUACCAGACGUAAAUAAGUCCCUUGGCAGCUGCGUACUAACUAGCACAGGAGGGUCC [Edleaes] | no |

* * *

# System: MS2 coat protein
# Test details: apparent KD of MS2 coat protein; designed switch direction (-1 OFF switch, 1 ON switch): 1; higher = weaker reporter binding
# Setup conditions: Eterna round: R95; input ligand: FMN 200 uM

| Construct sequence | Readout unit | apparent KD of MS2 coat protein |
| --- | --- | --- |
| GGUCCAGCCUGAGCUGGACAAAAGCAUGUACAUGAGGAUCACCCAUGUCAUGUACAAGCUUUUUGCUCGUUUUAAAA [JL mod - D87 - 14] (puzzle: Sensor for hsa-mir-208a) | nM | 527 |
| ACCCGAAGUAUAUGGGAACAAGCUUUUUAACAUGAGGAUCACCCAUGUACUCGUCUUAUAAGCAGUCGAAAGACUGC [Sensor 100 - 5] (puzzle: Sensor for hsa-mir-208a) | nM | 21.7 |
| GACAAUCUAUCUGAGGAUAUCAUGAGAAGAACAUGAGGAUCACCCAUGUGCAGGAAAACUGCAUAUGAGAAGGCAGAUAGAUUGG [Mat - Same State 2 - Mod - D17] (puzzle: Same State 2) | nM | 47.8 |
| GGAGAGAGAGCGGAGGAUAUUCAAGGAGAGACAUGAGGAUCACCCAUGUAAGAGAGAGAGGAGAGGGAGAAGGCUGAGAGAGAGG [Altered State 2-11 - Jieux - Same State 2] (puzzle: Same State 2) | nM | 25.1 |
| AGCUAUCGAAAACGAUAGCAAGAGCAUGUACAUGAGGAUCACCCAUGUCAUGUACAAGCUUUUUGCUCGUCUUAAAA [Zipper 23 - 2] (puzzle: Sensor for hsa-mir-208a) | nM | 330 |
| AACAAUCUAUCUGAGGAUAUCAUGAAAUAUACAUGAGGAUCACCCAUGUGCAGGAAAACUGCAUAUGAGAAGGCAGAUAGAUUGA [salish99_ss2_r3_034] (puzzle: Same State 2) | nM | 59 |
| CGUCGCUGUCGAGAGGAUAUGCGGUGAUGGACAUGAGGAUCACCCAUGUUAGCGAUAGCAUCACGGUAGAAGGCUCUUACGACUG [Soteed Omei mod 24] (puzzle: Same State 2) | nM | 12.6 |
